- Tested Target: hGcgR (Homo sapiens, UniProt P47871)
- Sequence (P47871 26-477): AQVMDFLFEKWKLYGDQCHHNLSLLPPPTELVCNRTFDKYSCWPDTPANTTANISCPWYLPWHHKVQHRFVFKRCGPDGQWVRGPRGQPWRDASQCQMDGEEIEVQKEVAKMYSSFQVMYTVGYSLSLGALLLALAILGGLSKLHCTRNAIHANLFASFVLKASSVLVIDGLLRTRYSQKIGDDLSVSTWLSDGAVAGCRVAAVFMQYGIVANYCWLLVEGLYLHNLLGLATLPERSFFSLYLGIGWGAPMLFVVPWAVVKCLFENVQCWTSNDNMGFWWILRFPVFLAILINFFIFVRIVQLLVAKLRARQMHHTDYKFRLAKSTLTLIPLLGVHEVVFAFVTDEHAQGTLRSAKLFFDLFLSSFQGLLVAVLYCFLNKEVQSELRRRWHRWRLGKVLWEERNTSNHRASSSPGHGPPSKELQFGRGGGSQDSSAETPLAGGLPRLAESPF
- Protocol Summary: Functional cAMP activation in the presence of 0.1% casein (no HSA);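 also: intracellular cAMP rise after 30 min at 37 °C, read by HTRF against a cAMP standard curve, scaled from buffer only (0%) to maximal control ligand response (100%)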
- Assay type: cell-based
- Condition Notes: in the presence of 0.1% casein (no HSA); geometric mean; read-out: Relative cAMP EC50, hGcgR
Starred links: 1 amine or outer side, 2 acyl side, 3 side chain; linkers in the order of their positions; H or OH if unused. Non-standard residues stand in square brackets, D forms with d. Groups on a side chain read outwards from the residue. *: point of attachment. C20 diacid = O=C(O)CCCCCCCCCCCCCCCCCCC(=O)*; C18 diacid = O=C(O)CCCCCCCCCCCCCCCCC(=O)*; αMePhe(2-F) = C[C@](N)(Cc1ccccc1F)C(=O)O; γGlu = O=C(O)[C@H](CCC(=O)[*:2])N[*:1]; αMe4Pal = C[C@](N)(Cc1ccncc1)C(=O)O; αMeY = C[C@](N)(Cc1ccc(O)cc1)C(=O)O; αMeF = C[C@](N)(Cc1ccccc1)C(=O)O; 4Pal = N[C@@H](Cc1ccncc1)C(=O)O; αMeL = CC(C)C[C@](C)(N)C(=O)O; αMeS = C[C@](N)(CO)C(=O)O; Orn = NCCC[C@H](N)C(=O)O; AEEA = NCCOCCOCC(=O)O; Aib = CC(C)(N)C(=O)O
For each of the substances below, state its EC50.
Answers are plain numbers, in nM.

Study these solved cases before continuing.
# Substance, Value Measured
measured = [
    ("H-Y[Aib]QGT[αMeF]TSD[4Pal][αMeS]I[αMeL]LD[Orn]K([γGlu-γGlu-C18 diacid])AQ[αMe4Pal]EFI[dE][αMeY]LIEGGPSSGEPPPSGSE-NH2 [Example 1173]", 2.31),
    ("H-Y[Aib]QGTFTSD[4Pal]SR[αMeL]LDKK([AEEA-γGlu-C18 diacid])AQ[αMe4Pal]AFIEYLIE[Aib]GESSGAPPPSGE-NH2 [Example 225]", 2.36),
]

API: the following record is the query input.
## Task Recall the reported EC50 of H-Y[Aib]QGT[αMePhe(2-F)]TSDYSKLLDKIAQK([AEEA-γGlu-C20 diacid])[Orn]FIEWLIEGGPSSGEPPPSEG-NH2 [Example 310] when tested on hGcgR (Homo sapiens, UniProt P47871).
## Result 3.52
